Property: inhibition; scope: individual compounds
target: Cytochrome P450 2C9 (Homo sapiens); experiment: blockers of cytochrome P450 2C9 activity – biochemical, luminescence, ADME assay, primary screen (AID 777); details: CYP2C9 Supersomes, luciferin-H conversion, at 5 µM, active compounds read high
Hit rate of the full screen: of about 96,000 compounds, about 19,000 (20%) were called active. A selection follows.
Reply with just the number (in %).

Observe how each entry below is paired with its result.
INSERT INTO assay_data (compound, assayed_target, measurement_type, measurement) VALUES
  ('COc1cccc(OC)c1C(=O)Nc1nnc(C(C)C)s1', 'Cytochrome P450 2C9 (Homo sapiens)', 'inhibition', 20.1),
  ('Oc1ccccc1CNc1ncc(Br)cc1Br', 'Cytochrome P450 2C9 (Homo sapiens)', 'inhibition', -39.9),
  ('Cc1cccc(C)c1-n1c(C)cc(/C=C2\C(=O)NN(c3ccccc3)C2=O)c1C', 'Cytochrome P450 2C9 (Homo sapiens)', 'inhibition', 41.5),
  ('Cc1cc(Cl)c(S(=O)(=O)Nc2ccc3c(c2)OCCO3)cc1OCC(N)=O', 'Cytochrome P450 2C9 (Homo sapiens)', 'inhibition', 19.9);

Report measured inhibition; entry is COC(=O)c1cc(OC)c(OC)cc1NC(=O)CSc1ccc(C)cc1
21.1

Quote inhibition reported for CCCOc1ccc(NC(=O)C2CCCNC2=O)cc1 (stereo unspecified) please.
1.9

* * *

molecular target: Cytochrome P450 2C9 (Homo sapiens); assay: blockers of cytochrome P450 2C9 activity – biochemical, luminescence, ADME assay, primary screen (AID 777); settings: CYP2C9 Supersomes, luciferin-H conversion, at 5 µM
Out of some 96,000 compounds screened, about 19,000 (20%) were called active.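 Rule for the calls: active = blocking of liver enzyme CYP2C9 beyond about 50% at 5 µM (limit read from the data); inactive = the rest.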 Not all results are given here.
Response enum: active, inactive

INSERT INTO measurements (compound, assayed_target, class) VALUES
  ('CN(C)c1ccc(CNC23CN4CN(CN(C4)C2)C3)cc1', 'Cytochrome P450 2C9 (Homo sapiens)', 'inactive'),
  ('CCC(CC)C(=O)Nc1cc(C(=O)OC)cc(C(=O)OC)c1', 'Cytochrome P450 2C9 (Homo sapiens)', 'inactive'),
  ('CCS(=O)(=O)n1nc(-c2ccc(OC)cc2)nc1SC', 'Cytochrome P450 2C9 (Homo sapiens)', 'inactive'),
  ('c1cnc(Nc2nc(-c3ccc4ccccc4c3)cs2)nc1', 'Cytochrome P450 2C9 (Homo sapiens)', 'inactive'),
  ('COc1ccc(Nc2nc(=O)[nH]nc2C)cc1', 'Cytochrome P450 2C9 (Homo sapiens)', 'inactive');

Hello, I am checking results. What call was entered for CCOC(=O)c1cc2sccc2n1Cc1ccc(C#N)cc1 ?
active

Just curious, what result did CCOc1cc(C(=S)N2CCOCC2)ccc1O get here?
inactive

Hi, sorry to bother you, what did the test record for COc1ccc(N2C(=O)CC(N3CCC(C(N)=O)CC3)C2=O)cc1 (stereo unspecified) ?
inactive

# fetch the recorded call for CC(C)OC(=O)c1cc(NC(=O)C2C3CCC(O3)C2C(=O)O)cc(C(=O)OC(C)C)c1 (stereo unspecified) here
active

Just curious, what result did COc1ccc(Cl)cc1NC(=O)CN(C)C(=O)CNC(=O)C12CC3CC(CC(C3)C1)C2 get here?
inactive

Dear all, I need the recorded test outcome for COC(C)(C)[C@]12CC(O)(C(C)C)ON1[C@H]1CCCCC1N2O (stereo partly specified) , thank you.
inactive

Outcome logged for O=C(NCc1ccccc1)C1C(=O)N(Cc2ccccc2)C(=O)C1C1(O)CCCC1 (stereo unspecified) in this assay:
inactive

So what was the verdict on Cc1ccccc1CSc1nnc(-c2ccccn2)n1N in this test?
inactive

Hello, I am checking results. What call was entered for COc1ccc(C2CC(c3ccccc3)Nc3ncnn32)cc1 (stereo unspecified) ?
inactive

Test call for this compound, please: COc1ccc(C)cc1NC(=O)CSc1nc(SC)ns1
inactive

Which result was noted for this compound in the test: Cc1ccc2nc(Nc3ccccc3O)nc(-c3ccccc3)c2c1
inactive

Record request — test call for Cc1[nH]c2ccccc2c1C(=O)COC(=O)C(C)C
inactive

Which outcome was entered for the compound Oc1ccc(-c2csc(Nc3cccnc3)n2)cc1 in this test?
inactive

Recorded test outcome, item COc1ccccc1OCCNc1cc(N2CCOCC2)ccc1[N+](=O)[O-]
active

Given N#C/C(=C(\O)CCl)c1nnc2n1CCCCC2 , state the outcome it received in this test.
inactive

Outcome? Cc1ccc(C)c(N2CCN(S(=O)(=O)c3ccc4c(c3)oc(=O)n4C)CC2)c1
active

Would you mind telling me which call this test gave CCOC(=O)c1cc2c(ccn2C)n1CC(=O)N1CCC(C)CC1 ?
inactive

Recorded test call requested for Cc1cc([N+](=O)[O-])c(-c2ccc(/C=N/n3cnnc3)o2)cc1Cl
active
